system: Aspergillus flavus; test: MIC, RPMI medium; assay type: cell-based; details: Aspergillus flavus, MIC banded into grades, read-out: MIC grade, A. flavus
Catalogue of compounds with associated MIC

Worked cases, answers included:
>>> print(df.to_string())
                                   compound  experimental_result
0  Cc1cc(C)nc(N2CCN(c3ccc(NC(=O)C(=O)c4c(-c5ccccc5)cc(C)n4CCO)cc3)CC2)c1 [Example 64]         1 to 10 mg/L
1  COCCn1ccc(-c2cccc(Cl)c2)c1C(=O)C(=O)Nc1ccc(N2CCN(c3cc(C)cc(C)n3)CC2)cc1 [Example 70]         1 to 10 mg/L
2  Cc1cc(-c2ccccc2)c(C(=O)C(=O)Nc2ccc(N3CCOCC3)cc2F)n1C [Example 101]             < 1 mg/L

The reported Aspergillus flavus MIC of CCCOCn1c(C)cc(-c2ccccc2)c1C(=O)C(=O)Nc1ccc(N2CCN(c3cc(C)cc(C)n3)CC2)cc1 [Example 139] is > 10 mg/L

The reported Aspergillus flavus MIC of COCCn1c(C)cc(-c2ccccc2)c1C(=O)C(=O)Nc1ccc(N2CCOCC2)cc1F [Example 117] is > 10 mg/L

The reported Aspergillus flavus MIC of Cc1cc(C)nc(N2CCN(c3ccc(NC(=O)C(=O)c4c(-c5ccccc5)cc5n4CCOC5)cc3)CC2)c1 [Example 7] is < 1 mg/L

The reported Aspergillus flavus MIC of COCCn1c(C)cc(-c2ccccc2)c1C(=O)C(=O)Nc1cccc2ccncc12 [Example 42] is > 10 mg/L

The reported Aspergillus flavus MIC of COCCn1ccc(-c2ccsc2)c1C(=O)C(=O)Nc1ccc(N2CCN(c3cc(C)cc(C)n3)CC2)cc1 [Example 72] is 1 to 10 mg/L
